Taken from paper PMC9322451.

assay explanation: Phase 1 part A: PK after single and multiple once-daily oral doses
Type: in vivo, human
setup conditions: human, plasma, po, 40 mg, Day 1, 40 mg, White; mean (CV%)
measured property: AUC(0-inf)
Answer by giving the amount and then stating its unit.

Task: Give the measured AUC(0-inf) of Cn1c(=O)oc2ccc(-c3ccc(C[C@@H](C#N)NC(=O)[C@@H]4CNCCCO4)cc3)cc21 .
Output: 5930 ng·h/mL

----------
assay explanation: Phase 1 part B: PK of single 40 mg oral dose, fasted vs fed (food effect)
Format: in vivo, human
setup conditions: human, plasma, po, 40 mg, 40 mg single oral dose, White, fasted; median (range); read-out: Tmax
measured property: Tmax (h)
Respond with the bare value in h.

Task: Give the measured Tmax of Cn1c(=O)oc2ccc(-c3ccc(C[C@@H](C#N)NC(=O)[C@@H]4CNCCCO4)cc3)cc21 .
Output: 1.25
